Test system: SR leukemia
assayExplanation: NCI tumour cell line growth inhibition, 48 h
So I've got a bunch of compounds here, and I need their GI50 values.

Known results for compounds:
| compound | value |
| --- | --- |
| COC(=O)c1oc2c(C(=O)/C=C/c3ccc(OC)cc3)c(OCCCN3CCCCC3)ccc2c1C | 1450 nM |
| Cn1cccc1-c1cc(-c2ccc(Br)cc2)nc(N)c1C#N | 3420 nM |

Items follow; give GI50 for each.
1. COc1ccc(C(=O)Nc2cccc(C3CC(=O)c4c(cc(OC)c(OC)c4OC)O3)c2)cc1 (centres undefined)
2. O=C1c2cc3c(cc2-c2c1c1ccc([N+](=O)[O-])cc1c(=O)n2CCCCl)OCO3
3. Cc1ccc(/C=C(\C#N)n2nnc3cc(F)c(F)cc32)cc1

["171 nM", "15.8 nM", "391 nM"]

* * *

Tested on: NCI/ADR-RES ovarian
assayExplanation: NCI tumour cell line growth inhibition, 48 h; in the data active = GI50 below about 0.43 µM; inactive = the rest
Respond using exactly one of the listed classes: active, inactive

Example entries and their recorded answers appear below.
| compound | className |
| --- | --- |
| Nc1nc(Cl)nc2c1ncn2C1O[C@H](CO)[C@@H](O)[C@@H]1F (stereo not given in full) | active |
| CC(O)CN(CCN(CC(C)O)CC(C)O)CC(C)O.O=[N+]([O-])O.[Cu+2] (stereo not given) | inactive |
| Cc1ccc(/C=C(\C#N)n2nnc3cc(F)c(F)cc32)cc1 | inactive |
| Cc1c2c(nn1-c1ccc(S/N=C3\SCC(=O)CN3c3ccccc3)cc1)-c1ccccc1CC2 | inactive |

Now examine the next entry.
// outcome(item) with item = `O=C1c2cccnc2-c2nc(-c3ccc([N+](=O)[O-])cc3)cc3c2c1nc1ccccc13` inactive

* * *

For each record, write down the corresponding TGI.
System: OVCAR-3 ovarian
assayExplanation: NCI tumour cell line growth inhibition, 48 h

Check out these entries, answers already filled in.
| smi | TGI |
| --- | --- |
| O=S1(=O)CSc2ccc3ccccc3c2-c2c1ccc1ccccc21 | > 100 µM |
| Cc1ccc(/C=C2\CCOC2=O)cc1 | > 100 µM |
| Cc1nc2cc(O)c(O)cc2cc1Oc1ccc(NC(=O)Nc2ccc(Cl)c(Cl)c2)cc1 | 19.9 µM |

Hi there! I need TGI for each item below, if you can.
1. CCOC(=O)c1c(OCC)[nH]c(=O)c(C(c2ccc(F)cc2)c2c(O)c(C(=O)OCC)c(OCC)[nH]c2=O)c1O
2. C=C1C(=O)O[C@H]2[C@H]1CC/C(Cn1cc(CCC)nn1)=C\CC[C@@]1(C)O[C@@H]21

1. 39.7 µM
2. 14 µM

* * *

Tested on: M19-MEL melanoma
assayExplanation: NCI tumour cell line growth inhibition, 48 h
observationType: TGI

Hey, can you go through the list below and give me TGI for every item?
1. OC(Cn1cncn1)(Cn1cncn1)c1ccc(Cl)cc1Cl
2. CC1(c2cccc(C3CCC4(C=CC3=O)OCCO4)c2)OCCO1 (configuration not stated)

["> 100 µM", "25.8 µM"]

For each of the molecules below, state TGI.
1. O=c1c(-c2ccccc2)c[nH]c2cc([N+](=O)[O-])c(/C(Cl)=C/c3ccccc3)cc12
2. O=C(CC1C(=O)Nc2ccccc2S1=O)Nc1cccc(Cl)c1 (configuration not stated)
3. CCOc1ccc(NC(=O)C2=C(C)NC(C)=C(C(=O)Nc3ccc(OCC)cc3)C2c2ccc([N+](=O)[O-])cc2)cc1
4. CC(=O)OC(C)(C)C1CCC(C)(C(O)COc2ccc(CCNC(=O)c3ccccc3)cc2)O1 (configuration not stated)
5. Cc1cccc(C)c1NC(=O)C(=O)C1C(=O)N(c2ccccc2)N=C1N (configuration not stated)
6. Cc1c2cc[n+](C)cc2c(C)c2c1[nH]c1ccc(O)cc12
7. CC(=O)OCCOCNC(=S)N/N=C(\C)c1ccco1

> 42.5 µM
> 100 µM
> 100 µM
> 100 µM
> 100 µM
48 µM
> 100 µM
